Each entry below lists one item and its recorded Kb value.
Target Under Test: human CGRP receptor (SK-N-MC cells) (Homo sapiens, UniProt O60894+Q16602)
Construct: SK-N-MC cells that endogenously express the human CGRP receptor; endogenous in cells; host or cells: SK-N-MC cells
Sequence (Q16602 23-461): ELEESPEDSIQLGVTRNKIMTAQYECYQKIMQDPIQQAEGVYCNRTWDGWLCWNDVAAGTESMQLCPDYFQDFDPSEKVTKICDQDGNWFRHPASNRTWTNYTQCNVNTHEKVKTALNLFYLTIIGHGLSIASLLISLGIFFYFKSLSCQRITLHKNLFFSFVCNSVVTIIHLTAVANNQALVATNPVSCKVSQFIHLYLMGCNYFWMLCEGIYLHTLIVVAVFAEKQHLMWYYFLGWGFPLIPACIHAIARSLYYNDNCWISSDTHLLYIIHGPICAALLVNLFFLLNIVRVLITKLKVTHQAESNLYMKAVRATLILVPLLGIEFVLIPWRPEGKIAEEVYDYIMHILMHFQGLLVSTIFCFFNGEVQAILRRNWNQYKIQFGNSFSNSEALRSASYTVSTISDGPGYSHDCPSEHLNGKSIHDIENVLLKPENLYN
Sequence (O60894 27-148): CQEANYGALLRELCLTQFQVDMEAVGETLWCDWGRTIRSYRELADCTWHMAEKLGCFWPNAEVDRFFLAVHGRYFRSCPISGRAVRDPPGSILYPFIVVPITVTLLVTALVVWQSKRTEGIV
Experiment Notes: Schild analysis of CGRP stimulated cAMP production
Type: cell-based
Test Context: Schild analysis, dissociation constant of the antagonist; read-out: Kb
Kindly answer with a numeric value in nM, unit omitted.

Guide cases for Kb, answers given:
O=C(NC(Cc1ccc2[nH]ccc2c1)C(=O)N1CCC(N2CCCCC2)CC1)N1CCC(n2c(=O)[nH]c3ccccc32)CC1 (racemic) [Example 3] :: 55
O=C(N[C@H](Cc1ccc2[nH]c(=O)oc2c1)C(=O)N1CCC(N2CCCCC2)CC1)N1CCC(N2Cc3ccccc3NC2=O)CC1 [Example 47] :: 0.1

Query O=C(NC(Cc1cc(Cl)c2[nH]ncc2c1)C(=O)N1CCC(N2CCCCC2)CC1)N1CCC(N2Cc3ccccc3NC2=O)CC1 (racemic) [Example 43] yields Kb of 0.018
